Data origin: patent US20190211071A1

Rate of generation of cGMP: Ratio compared ANP values by entry
Molecular target: T1, rat NPR-A (rat, UniProt P18910 29-1057)
T1 sequence (looked up): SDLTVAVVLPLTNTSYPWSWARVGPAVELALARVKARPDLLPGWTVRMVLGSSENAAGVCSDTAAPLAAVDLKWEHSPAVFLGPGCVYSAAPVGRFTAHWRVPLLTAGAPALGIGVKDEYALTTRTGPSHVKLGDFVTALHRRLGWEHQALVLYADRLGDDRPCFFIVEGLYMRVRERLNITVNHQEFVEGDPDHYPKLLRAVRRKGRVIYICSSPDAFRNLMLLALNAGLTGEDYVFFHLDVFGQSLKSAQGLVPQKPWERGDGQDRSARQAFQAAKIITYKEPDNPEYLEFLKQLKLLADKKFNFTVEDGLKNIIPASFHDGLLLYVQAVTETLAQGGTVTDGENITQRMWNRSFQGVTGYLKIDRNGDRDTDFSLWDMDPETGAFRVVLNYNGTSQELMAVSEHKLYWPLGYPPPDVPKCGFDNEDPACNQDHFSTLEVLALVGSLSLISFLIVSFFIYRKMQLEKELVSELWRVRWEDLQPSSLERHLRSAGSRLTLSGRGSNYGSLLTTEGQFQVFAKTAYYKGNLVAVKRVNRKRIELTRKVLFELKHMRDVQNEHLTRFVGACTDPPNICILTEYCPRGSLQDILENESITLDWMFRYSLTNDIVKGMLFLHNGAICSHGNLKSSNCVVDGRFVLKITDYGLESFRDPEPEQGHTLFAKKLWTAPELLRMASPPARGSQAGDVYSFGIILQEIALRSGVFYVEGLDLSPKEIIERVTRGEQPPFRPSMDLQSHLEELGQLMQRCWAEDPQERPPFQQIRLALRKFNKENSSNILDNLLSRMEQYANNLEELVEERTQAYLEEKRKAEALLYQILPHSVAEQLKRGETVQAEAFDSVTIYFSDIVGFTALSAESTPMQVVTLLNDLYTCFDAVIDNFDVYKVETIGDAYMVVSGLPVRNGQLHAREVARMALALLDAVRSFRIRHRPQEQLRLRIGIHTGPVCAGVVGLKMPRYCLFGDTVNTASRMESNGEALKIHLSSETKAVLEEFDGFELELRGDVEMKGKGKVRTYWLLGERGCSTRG
Experiment: cell-based or functional assay
Positions of bridges follow the written chain, without caps; N, C: chain ends. No end group written: not given here.
Measured Metric: Rate of generation of cGMP: Ratio compared ANP (ratio)

[
  {
    "Binder": "GLLISCFDGRIDRISHTSDIGCRH (disulfide 6-22) [^DGDK-Ring]",
    "Value": 1590
  },
  {
    "Binder": "GLLISCFGRRIDRISHTSGIGCRH (disulfide 6-22) [^GRGK-Ring]",
    "Value": 41.9
  },
  {
    "Binder": "SLRRSSCFDGRMDRIGAQSDLGCNSFRY (disulfide 7-23 (inferred)) [^DGDANP]",
    "Value": 56.9
  },
  {
    "Binder": "GLLISCFDRRIDRISHTSDIGCNSFRY (disulfide 6-22) [K-Ring^NSFRY]",
    "Value": 25.7
  },
  {
    "Binder": "SLRRSSCFDRRMDRIGAQSDLGCNSFRY (disulfide 7-23 (inferred)) [^DRDANP]",
    "Value": 21
  },
  {
    "Binder": "GLLISCFGRRIDRISHTSDIGCRH (disulfide 6-22) [^GRDK-Ring]",
    "Value": 70.5
  },
  {
    "Binder": "GLLISCFDRRIDRISHTSDIGCRH (disulfide 6-22) [K-Ring]",
    "Value": 350
  },
  {
    "Binder": "GLLISCFDRRIDRISHTSGIGCRH (disulfide 6-22) [^DRGK-Ring]",
    "Value": 1140
  }
]
